Molecular target: Solute carrier family 2, facilitated glucose transporter member 1 (Homo sapiens) (UniProt P11166)
Sequence (P11166 whole entry): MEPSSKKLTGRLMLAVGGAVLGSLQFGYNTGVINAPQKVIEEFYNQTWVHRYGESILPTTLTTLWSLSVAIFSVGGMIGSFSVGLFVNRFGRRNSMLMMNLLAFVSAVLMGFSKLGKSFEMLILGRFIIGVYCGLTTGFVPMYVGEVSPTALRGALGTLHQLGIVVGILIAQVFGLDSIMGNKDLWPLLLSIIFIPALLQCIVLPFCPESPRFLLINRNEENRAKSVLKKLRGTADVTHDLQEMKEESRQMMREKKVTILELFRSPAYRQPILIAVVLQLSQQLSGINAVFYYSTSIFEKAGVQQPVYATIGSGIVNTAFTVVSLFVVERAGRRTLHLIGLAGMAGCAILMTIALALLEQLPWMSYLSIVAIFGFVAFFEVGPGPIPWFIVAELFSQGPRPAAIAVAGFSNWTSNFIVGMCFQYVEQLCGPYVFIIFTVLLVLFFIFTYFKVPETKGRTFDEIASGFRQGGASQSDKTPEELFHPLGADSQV
Assay: ST_JUDE_LEISH: Cytotoxicity at 2uM final concentration against transgenic Leishmania Mexicana promastigotes LmGLUT1 that are glucose transport deficient and complemented with the human glucose transporter GLUT1. Activity is measured by DNA content using SYBR green in vitro
Format: functional
RECORDED METRIC: inhibition (%)
Numbers only here, please. The scale is %.

Some compounds with known inhibition results, for comparison:
O=C(Nc1cccc(-c2cc(-c3c(Cl)cccc3Cl)no2)c1)c1cncc(-c2cccs2)c1    16
O=c1cnc2ccc(F)cc2n1CCN1CCC(NCc2cc(-c3ccccc3)cs2)CC1    28.4
COc1ccccc1N1CCN(CCCCNC(=O)c2ccc(NC(=O)c3ccc(OC(F)(F)F)cc3)cc2)CC1    1.23
CCCCN1CC[C@@H](CCC(O)c2ccnc3ccc(OCCC(C)C)cc23)[C@@H](CC)C1 (stereo not given in full)    1.18
O=C(Nc1ccc(OC2CCN(Cc3ccc(F)cc3)C2)cc1)c1ccco1 (stereo not given)    2.22

The reported value for Cc1cccc2nc(-c3cccc(-c4ccc(NC(=O)Nc5ccsc5)cc4)c3)[nH]c12 in terms of inhibition is 5

Recorded inhibition (compound Cc1cc(NCCc2ccccc2)nc(NC(=N)Nc2cccc(F)c2)n1 ): 2.17

Reported inhibition of O=C(NC1CCN(c2ccnc3cc(Cl)ccc23)C1)c1ccc(F)cc1 (stereo not given) : 2.4

Looking up COc1cccc(-c2csc(C(=O)NC3CCCCN(Cc4ccc(C(C)(C)C)cc4)C3)c2)c1 (stereo not given) , I see its inhibition listed as 4.84

Form field inhibition, entry CCOc1cc(C)ccc1C1CCN(CCCCNC(=O)c2coc(-c3ccc(Cl)cc3)c2)CC1 : 0.96
